Just for reference, paper PMC2756588 is where these values come from.

tested system: T1, Bzz1-2, P38822
T1 sequence (P38822 568-633, looked up): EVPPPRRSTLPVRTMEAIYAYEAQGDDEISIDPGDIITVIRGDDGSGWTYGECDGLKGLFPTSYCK
experiment summary: SPOT array
experimental conditions: median of control spots 4538
outcome measure: SPOT intensity

AATTSTPPLPRRRAT 0
RTRRRPPPPPIPSTQ 2960
FTLPPPPPPPGLDEL 0
YVRRRPRVRLEPLLS 15
SNRRPVPRRPSQPLN 60

P: SGVRLPAPPPPPRRG
Q: GSKSGPPPRPKKPST
Challenge: Lower value for measured SPOT intensity? Options: P , Q Respond with the label that goes with your answer.
Response given: Q
(Q: 11, P: 20)
